Listing: GI50 of selected molecules
assay: Growth inhibition of human OVCAR3 cells after 48 hrs by sulforhodamine B assay; format: functional; settings: OVCAR-3, 48 h
Please give a number only; it is taken to be in µM.

Past entries and their recorded results:
entry-smiles | GI50 / µM
CC1=CC[C@H](C(C)(C)NC(=S)N/N=C/c2ccco2)CC1 | 10.8
CC1=CC[C@H](C(C)(C)NC(=S)N/N=C/c2ccc(C)cc2)CC1 | 67.2

// next item, GI50 requested
Entry COc1ccc(/C(C)=N/NC(=S)NC(C)(C)[C@H]2CC=C(C)CC2)cc1 has what GI50? 74.9

====

Listing: TGI of selected compounds
system: NCI-H460; assay: Growth inhibition of human NCI-H460 cells after 48 hrs by sulforhodamine B assay; assay type: functional; conditions: NCI-H460, 48 h

entry-smiles | test-target | TGI
CC1=CC[C@H](C(C)(C)NC(=S)N/N=C/c2cccs2)CC1 | NCI-H460 | 20.8 µM
CC1=CC[C@H](C(C)(C)NC(=S)N/N=C/c2ccc[nH]2)CC1 | NCI-H460 | 57.5 µM
CC1=CC[C@H](C(C)(C)NC(=S)N/N=C/c2ccccc2O)CC1 | NCI-H460 | 8.4 µM
CC1=CC[C@H](C(C)(C)NC(=S)N/N=C/c2ccccc2Cl)CC1 | NCI-H460 | 81 µM
CC1=CC[C@H](C(C)(C)NC(=S)N/N=C(\C)c2ccccc2)CC1 | NCI-H460 | > 100 µM

Give TGI (NCI-H460) of the following compound: CC1=CC[C@H](C(C)(C)NC(=S)N/N=C/c2ccc(Cl)cc2)CC1 21.1 µM

====

test system: Vero; test: Growth inhibition of African green monkey Vero cells after 48 hrs by sulforhodamine B assay; type: cell-based; settings: chlorocebus sabaeus, vero, 48 h
Listing: TGI of selected compounds

entry-smiles | measurement
CC1=CC[C@H](C(C)(C)NC(=S)N/N=C/c2ccccc2O)CC1 | 11.2 µM
CC1=CC[C@H](C(C)(C)NC(=S)N/N=C/c2ccc(O)cc2)CC1 | > 100 µM
CC1=CC[C@H](C(C)(C)NC(=S)N/N=C/c2cccc(Cl)c2)CC1 | > 100 µM
CC1=CC[C@H](C(C)(C)NC(=S)N/N=C/c2ccc(Cl)cc2)CC1 | > 100 µM
CC1=CC[C@H](C(C)(C)NC(=S)NN)CC1 | > 100 µM
CC1=CC[C@H](C(C)(C)NC(=S)N/N=C/c2ccccc2)CC1 | > 100 µM

Entry COc1cc(/C=N/NC(=S)NC(C)(C)[C@H]2CC=C(C)CC2)ccc1O has what TGI? 91.8 µM

Entry CC1=CC[C@H](C(C)(C)NC(=S)N/N=C/c2ccc[nH]2)CC1 has what TGI? > 100 µM

Entry CC1=CC[C@H](C(C)(C)NC(=S)N/N=C/c2ccco2)CC1 has what TGI? 14.7 µM

Entry CC1=CC[C@H](C(C)(C)NC(=S)N/N=C/c2ccc(C)cc2)CC1 has what TGI? > 100 µM

Entry CC1=CC[C@H](C(C)(C)N=C=S)CC1 has what TGI? > 100 µM

====

experiment: Ratio of compound GI50 to paclitaxel GI50 for African green monkey Vero cells; format: ADME, cell-based; settings: chlorocebus sabaeus, read-out: RatioGI50
assay-readout: selectivity ratio

Entry CC1=CC[C@H](C(C)(C)NC(=S)N/N=C/c2ccccc2O)CC1 has what selectivity ratio? 100
